// data source = ChEMBL document CHEMBL5126543

Test protocol: Cytotoxicity against HFF-1 cells measured after 72 hrs by WST-1 assay
Assay type: toxicity, cell-based
Test conditions: human
Let's look at some compounds and their measured log10 IC50 at 72 h.
Kindly note that the scale is log10 and the underlying IC50 at 72 h is in µM.

*Q* Identify log10 IC50 at 72 h associated with the compound Cn1cnc2nc(SCC#CCN3CCCC3)nc(SCC#CCN3CCCC3)c21
*A* 1.00

*Q* Identify the reported log10 IC50 at 72 h for the following entry. Cn1c(SCC#CCN2CCCC2)nc2nc(Cl)nc(SCC#CCN3CCCC3)c21
*A* 0.56

*Q* Look up and report measured log10 IC50 at 72 h for this entry: CCN(CC)CC#CCSc1nc(Cl)nc2nc(SCC#CCN(CC)CC)n(C)c12
*A* 0.00

*Q* Give the reported log10 IC50 at 72 h for this compound. Cn1c(SCC#CCN2CCCCC2)nc2c1c(=O)[nH]c(=O)n2C
*A* 1.48

*Q* Answer with reported log10 IC50 at 72 h of Cn1c(SCC#CCN2CCOCC2)nc2c1c(=O)[nH]c(=O)n2C
*A* 0.77
